Data provenance is ChEMBL document CHEMBL1152230.

Target: Orexin receptor type 2 (Homo sapiens)
Assay: Antagonist activity at human OX2 receptor expressed in HEK293 cells assessed as inhibition of human orexin-A-stimulated calcium release by FLIPR assay
Type: functional, cell-based
Details: read-out: IC50
TEST READOUT: IC50

1. COc1ccc(OCCN(CC(=O)NCc2ccccc2)Cc2ccc(F)c(F)c2)cc1OC; < 30 nM
2. COc1ccc(OCCN(CC(=O)NCc2ccccc2)Cc2ccccc2)cc1OC; < 30 nM

// moving on: another record for IC50
Look up and state reported IC50 for `COc1ccc(OCCN(CC(=O)NCc2ccccc2)Cc2ccc(F)cc2)cc1OC`
< 30 nM

----------
Target: Orexin receptor type 2 (Homo sapiens)
Sequence (O43614 whole entry): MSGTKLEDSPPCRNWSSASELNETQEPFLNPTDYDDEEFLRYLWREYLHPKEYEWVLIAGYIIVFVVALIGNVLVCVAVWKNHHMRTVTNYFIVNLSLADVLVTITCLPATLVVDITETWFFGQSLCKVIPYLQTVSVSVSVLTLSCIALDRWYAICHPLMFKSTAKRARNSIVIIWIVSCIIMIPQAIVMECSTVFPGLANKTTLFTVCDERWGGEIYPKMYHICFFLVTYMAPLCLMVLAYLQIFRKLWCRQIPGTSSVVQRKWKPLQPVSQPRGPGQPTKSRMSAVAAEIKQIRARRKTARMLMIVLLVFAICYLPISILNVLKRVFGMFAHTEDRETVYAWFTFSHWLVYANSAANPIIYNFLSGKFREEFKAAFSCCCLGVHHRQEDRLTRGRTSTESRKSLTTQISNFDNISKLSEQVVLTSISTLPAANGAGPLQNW
Assay: Antagonist activity at human OX2 receptor expressed in HEK293 cells assessed as inhibition of human orexin-A-stimulated calcium release by FLIPR assay
Type: functional, cell-based
Conditions: read-out: pIC50 (converted)
TEST READOUT: IC50 (nM)

1. COc1ccc(OCCN(CC(=O)NCC(C)C)Cc2ccc(F)c(F)c2)cc1OC; 229
2. COc1ccc(OCCN(CC(=O)NCc2ccccc2)Cc2cccs2)cc1OC; 110
3. COc1ccc(OCCN(CC(=O)NCc2ccccc2)Cc2ccc(F)c(F)c2)cc1OC; 18.6
4. COc1ccc(OCCN(CC(=O)NCC(C)C)Cc2ccccc2)cc1OC; 302
5. COc1ccc(OCCN(CC(=O)NCC(C)C)Cc2cccs2)cc1OC; 324

[P] COc1ccc(OCCCN(CC(=O)NCc2ccccc2)Cc2ccc(F)c(F)c2)cc1OC
[Q] COc1ccc(OCCN(CC(=O)NCc2ccccc2)Cc2ccccc2)cc1OC
[R] COc1ccc(OCCN(CC(=O)NCC(C)C)Cc2ccc(F)cc2)cc1OC
[S] COc1ccc(OCCCN(CC(=O)NCc2ccccc2)Cc2ccccc2)cc1OC
Which order do these items take when sorted by rising IC50? List them. A complete answer lists every label in the requested sequence.
Q, S, P, R
(Q: 25.1 nM, S: 51.3 nM, P: 107 nM, R: 562 nM)

----------
Biological target: Orexin receptor type 2 (Homo sapiens)
Test: Antagonist activity at human OX2 receptor expressed in HEK293 cells assessed as inhibition of human orexin-A-stimulated calcium release by FLIPR assay
Assay type: functional, cell-based
Conditions: read-out: pIC50 (converted)
TEST READOUT: IC50 (nM)

1) COc1ccc(OCCN(CC(=O)NCc2ccccc2Cl)Cc2ccc(F)cc2)cc1OC; 138
2) COc1ccc(OCCN(CC(=O)NCc2ccccc2Cl)Cc2ccccc2)cc1OC; 151

[1] COc1ccc(OCCCN(CC(=O)NCc2ccccc2)Cc2cccs2)cc1OC
[2] COc1ccc(OCCN(CC(=O)NCc2ccccc2)Cc2ccc(F)cc2)cc1OC
[3] COc1ccc(OCCN(CC(=O)NCc2ccccc2Cl)Cc2cccs2)cc1OC
[4] COc1ccc(OCCN(CC(=O)NCc2ccccc2Cl)Cc2ccc(F)c(F)c2)cc1OC
List from greatest to least IC50. Dear reader, please state the labels in the requested order.
3, 1, 4, 2
(3: 195 nM, 1: 132 nM, 4: 81.3 nM, 2: 19.5 nM)
